Target: UniProt P01116
Sequence (P01116 1-188 isoform P01116-2): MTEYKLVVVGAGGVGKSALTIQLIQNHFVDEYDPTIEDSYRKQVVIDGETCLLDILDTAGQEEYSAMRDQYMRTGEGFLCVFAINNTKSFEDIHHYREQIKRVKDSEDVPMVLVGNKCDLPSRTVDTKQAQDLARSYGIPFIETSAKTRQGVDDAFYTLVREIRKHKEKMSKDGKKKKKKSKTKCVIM
Experiment: GDPx_Icagen_IC50: SOS1-mediated guanine nucleotide exchange rate of Ras (mant-GDP)
Format: biochemical
Details: SOS1-initiated exchange
pIC50: −log10 of the molar value.
Measured pIC50 by item
Readout Kind: pIC50

INSERT INTO results (molecule_smiles, readout_kind, numeric_readout) VALUES
  ('Cc1c(CSc2ccccc2)[nH]n(-c2nc3ccccc3[nH]2)c1=O', 'pIC50', 6.11),
  ('Cc1csc(SCc2cc(=O)n(-c3nc4ccccc4[nH]3)[nH]2)n1', 'pIC50', 6.22),
  ('O=c1cc(CSc2cccc(Cl)c2)[nH]n1-c1nc2ccccc2[nH]1', 'pIC50', 6.77),
  ('Cc1cc(C)nc(SCc2cc(=O)n(-c3nc4ccccc4[nH]3)[nH]2)n1', 'pIC50', 5.74),
  ('Cc1nnc(SCc2cc(=O)n(-c3nc4ccccc4s3)[nH]2)s1', 'pIC50', 4.68),
  ('Cc1cc(C)nc(SCc2cc(=O)n(-c3nc4ccccc4s3)[nH]2)n1', 'pIC50', 5.24),
  ('O=c1cc(CSc2ccc(Cl)cc2)[nH]n1-c1nc2ccccc2[nH]1', 'pIC50', 6.70),
  ('O=c1cc(CSc2ccccc2)[nH]n1-c1nc2ccccc2[nH]1', 'pIC50', 6.52),
  ('Cn1c(-n2[nH]c(CSc3ccccc3)cc2=O)nc2ccccc21', 'pIC50', 4.92);
